target: Human immunodeficiency virus type 1 reverse transcriptase (Human immunodeficiency virus 1); experiment: Tested for the inhibition of HIV-1 reverse transcriptase at a concentration of 100 ug/mL using a ribosomal RNA template
// reported inhibition for each item listed

>  <molecule>
CC(C)=CCNC(C)Cn1c(S)nc2ccccc21 (stereo not given)

>  <inhibition / %>
46

$$$$
>  <molecule>
CC(C)=CCN(C)C(C)Cn1c(S)nc2ccccc21 (stereo not given)

>  <inhibition / %>
34

$$$$
>  <molecule>
CC(Cn1c(S)nc2ccccc21)NCc1ccccc1 (stereo not given)

>  <inhibition / %>
36

$$$$
>  <molecule>
C=CCNC(C)Cn1c(S)nc2ccccc21 (stereo not given)

>  <inhibition / %>
29

$$$$
>  <molecule>
CC(Cn1c(S)nc2ccccc21)N(C)Cc1ccccc1 (stereo not given)

>  <inhibition / %>
31

$$$$
